Data origin, for the record: ChEMBL document CHEMBL1130569

Here, each record is paired with measured Krel data.
System: Nucleic Acid
Experiment: Compound was evaluated for relative rate constant for alkylation of the single high affinity site in w794 DNA at pH 7.5.
Format: nucleic-acid assay

| smilesEntry | Krel |
| --- | --- |
| COc1ccc2c(c1)[C@@]13C[C@@H]1CN(C(=O)c1cc4cc(NC(=O)c5cc6ccccc6[nH]5)ccc4[nH]1)C3=CC2=O | 1.4 |
| COc1cc2cc(C(=O)N3C[C@H]4C[C@@]45C3=CC(=O)c3ccc(C#N)cc35)[nH]c2c(OC)c1OC | 2.5 |
| O=C(Nc1ccc2[nH]c(C(=O)N3C[C@H]4C[C@@]45C3=CC(=O)c3ccccc35)cc2c1)c1cc2ccccc2[nH]1 | 1 |
